protocol_notes: suppressors of polyQ aggregation in yeast, 75Q-TubU reporter (AID 1593)
assay_context: Yeast 75Q polyglutamine aggregation reporter

[
  {
    "molecule": "CCCNCC(O)COc1ccccc1C(=O)CCc1ccccc1 (stereo not given)",
    "score": 1.02
  },
  {
    "molecule": "CCN(CC)CCCC(C)Nc1ccnc2cc(Cl)ccc12 (stereo not given)",
    "score": 1.1
  },
  {
    "molecule": "Cc1noc(NS(=O)(=O)c2ccc(N)cc2)c1C",
    "score": 1.57
  },
  {
    "molecule": "CCCN1C[C@H](CSC)C[C@@H]2c3cccc4[nH]cc(c34)C[C@H]21",
    "score": 1
  },
  {
    "molecule": "CN(C)CCCN1c2ccccc2CCc2ccc(Cl)cc21",
    "score": 0.98
  },
  {
    "molecule": "Cc1ccc(S(=O)(=O)NC(=O)NN2CCCCCC2)cc1",
    "score": 1.2
  },
  {
    "molecule": "CN1CCN(CCCN2c3ccccc3Sc3ccc(C(F)(F)F)cc32)CC1",
    "score": 1.12
  },
  {
    "molecule": "CN(C)CCOC(c1ccccc1)c1ccccc1",
    "score": 1.18
  },
  {
    "molecule": "Cc1onc(-c2c(Cl)cccc2Cl)c1C(=O)N[C@@H]1C(=O)N2[C@@H]1SC(C)(C)[C@@H]2C(=O)O",
    "score": 1.26
  },
  {
    "molecule": "NS(=O)(=O)c1cc(C2(O)NC(=O)c3ccccc32)ccc1Cl (stereo not given)",
    "score": 1.55
  },
  {
    "molecule": "CS(=O)(=O)OCCCCOS(C)(=O)=O",
    "score": 1.46
  },
  {
    "molecule": "O=C(C1CCCCC1)N1CC(=O)N2CCc3ccccc3C2C1 (stereo not given)",
    "score": 0.82
  },
  {
    "molecule": "c1ccc2c(c1)CCCC2C1=NCCN1 (stereo not given)",
    "score": 1.43
  },
  {
    "molecule": "CC(C)[N+](C)(CCOC(=O)C1c2ccccc2Oc2ccccc21)C(C)C",
    "score": 0.96
  },
  {
    "molecule": "O=C1N=C(O)CN1/N=C/c1ccc(-c2ccc([N+](=O)[O-])cc2)o1",
    "score": 1.7
  },
  {
    "molecule": "Cn1c(=O)c2[nH]cnc2n(C)c1=O",
    "score": 1.11
  },
  {
    "molecule": "CC(C)Cc1ccc(C(C)C(=O)O)cc1 (stereo not given)",
    "score": 0.01
  },
  {
    "molecule": "Cc1cccc(CN2CCN(C(c3ccccc3)c3ccc(Cl)cc3)CC2)c1 (stereo not given)",
    "score": 1.9
  },
  {
    "molecule": "N[C@@H]1CONC1=O",
    "score": 1.72
  },
  {
    "molecule": "CCCc1cc(=O)[nH]c(=S)[nH]1",
    "score": 1.06
  },
  {
    "molecule": "c1ccc(CC2=NCCN2)cc1",
    "score": 1.26
  },
  {
    "molecule": "CN(C)CCOC(C)(c1ccccc1)c1ccccn1 (stereo not given)",
    "score": 1.23
  },
  {
    "molecule": "CC1=C(CC(=O)O)c2cc(F)ccc2/C1=C\\c1ccc(S(C)=O)cc1 (stereo not given)",
    "score": 0.78
  },
  {
    "molecule": "C=C(CC)C(=O)c1ccc(OCC(=O)O)c(Cl)c1Cl",
    "score": 0.22
  },
  {
    "molecule": "Cc1ccc(C)c(OCCCC(C)(C)C(=O)O)c1",
    "score": -0.33
  },
  {
    "molecule": "CC(C[N+](C)(C)C)OC(N)=O (stereo not given)",
    "score": 1.26
  },
  {
    "molecule": "NS(=O)(=O)c1cc2c(cc1Cl)NC=NS2(=O)=O",
    "score": 1.24
  },
  {
    "molecule": "O=C1NC(=O)C(c2ccccc2)(c2ccccc2)N1",
    "score": 1.42
  },
  {
    "molecule": "Nc1nc2ncc(CNc3ccc(C(=O)N[C@@H](CCC(=O)O)C(=O)O)cc3)nc2c(=O)[nH]1",
    "score": 1.02
  },
  {
    "molecule": "CC[N+](C)(C)c1cccc(O)c1",
    "score": 1.45
  },
  {
    "molecule": "CC(C)(C)NCC(O)c1cc(O)cc(O)c1 (stereo not given)",
    "score": 1.33
  },
  {
    "molecule": "CC(C)C(=O)Nc1ccc([N+](=O)[O-])c(C(F)(F)F)c1",
    "score": 0.95
  },
  {
    "molecule": "CCN(CC)CCOC(=O)C1(C2CCCCC2)CCCCC1",
    "score": 0.92
  },
  {
    "molecule": "OC(CCN1CCCCC1)(c1ccccc1)C1CCCCC1 (stereo not given)",
    "score": 1.21
  },
  {
    "molecule": "O=c1n(CCCN2CCN(c3cccc(Cl)c3)CC2)nc2ccccn12",
    "score": 1.36
  },
  {
    "molecule": "CC(=O)Nc1nnc(S(N)(=O)=O)s1",
    "score": 1.01
  },
  {
    "molecule": "C[C@@H]1O[C@@H](OC[C@H]2O[C@@H](Oc3c(-c4ccc(O)c(O)c4)oc4cc(O)cc(O)c4c3=O)[C@H](O)[C@@H](O)[C@@H]2O)[C@H](O)[C@H](O)[C@H]1O",
    "score": 1.12
  },
  {
    "molecule": "c1ccc2[nH]c(-c3cscn3)nc2c1",
    "score": 0.53
  },
  {
    "molecule": "NCCc1ccc(O)c(O)c1",
    "score": 1.44
  },
  {
    "molecule": "Nc1nc2c(ncn2COCCO)c(=O)[nH]1",
    "score": 1.1
  }
]
